FYI, the data here is from patent US12338243B2.

# experimental-system: rat P2X7 (Rattus norvegicus, UniProt Q64663)
# Sequence (Q64663 1-595): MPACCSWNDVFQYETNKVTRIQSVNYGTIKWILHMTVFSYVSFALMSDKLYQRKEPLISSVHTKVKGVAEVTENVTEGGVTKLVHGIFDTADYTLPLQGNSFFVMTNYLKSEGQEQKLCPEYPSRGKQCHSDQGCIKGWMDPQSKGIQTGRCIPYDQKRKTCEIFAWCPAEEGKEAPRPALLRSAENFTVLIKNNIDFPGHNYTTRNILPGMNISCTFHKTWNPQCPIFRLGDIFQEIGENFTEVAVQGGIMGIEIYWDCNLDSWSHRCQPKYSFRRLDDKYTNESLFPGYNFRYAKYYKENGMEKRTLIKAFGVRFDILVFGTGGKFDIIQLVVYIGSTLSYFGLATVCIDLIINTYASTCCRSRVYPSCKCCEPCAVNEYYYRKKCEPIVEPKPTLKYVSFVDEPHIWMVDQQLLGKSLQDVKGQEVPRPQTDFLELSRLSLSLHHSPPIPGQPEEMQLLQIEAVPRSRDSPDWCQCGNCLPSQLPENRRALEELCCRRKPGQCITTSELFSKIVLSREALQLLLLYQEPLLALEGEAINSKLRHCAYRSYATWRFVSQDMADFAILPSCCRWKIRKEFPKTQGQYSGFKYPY
Listed molecules paired with reported log10 of Ki
value-kind: log10 of Ki (log10 of the value in nM)

molecule: CCc1nnc2n1CCN(C(=O)c1cccc(C(F)(F)F)c1Cl)[C@@H]2c1ccccc1 [Example 86]
experimental-system: rat P2X7 (Rattus norvegicus, UniProt Q64663)
log10 of Ki: 1.00
//
molecule: O=C(c1cccc(C(F)(F)F)c1Cl)N1CCn2c(nnc2C(F)(F)F)[C@H]1c1ccccc1 [Example 97]
experimental-system: rat P2X7 (Rattus norvegicus, UniProt Q64663)
log10 of Ki: 0.67
//
molecule: C[C@H]1Cn2c(nnc2-c2cccc(F)c2)CN1C(=O)c1cccc(C(F)(F)F)c1Cl [Example 42]
experimental-system: rat P2X7 (Rattus norvegicus, UniProt Q64663)
log10 of Ki: 1.27
//
molecule: COc1ccc(-c2nnc3n2C[C@H](C)N(C(=O)c2cccc(Cl)c2Cl)C3)nc1 [Example 72]
experimental-system: rat P2X7 (Rattus norvegicus, UniProt Q64663)
log10 of Ki: 2.25
//
molecule: C[C@H]1c2nnc(-c3ccccn3)n2CCN1C(=O)c1cccc(Cl)c1Cl (single isomer, unassigned) [Example 3]
experimental-system: rat P2X7 (Rattus norvegicus, UniProt Q64663)
log10 of Ki: 3.25
//
molecule: O=C(c1cccc(Cl)c1Cl)N1CCn2c(nnc2C(F)(F)F)[C@H]1c1ccccc1 [Example 102]
experimental-system: rat P2X7 (Rattus norvegicus, UniProt Q64663)
log10 of Ki: 1.47
//
molecule: Cc1nnc2n1CCN(C(=O)c1cccc(C(F)(F)F)c1Cl)C2c1ccccc1 (racemic) [Example 53]
experimental-system: rat P2X7 (Rattus norvegicus, UniProt Q64663)
log10 of Ki: 1.60
